System: Staphylococcus aureus
assay explanation: Antibacterial activity against Staphylococcus aureus
Format: functional
Rule: measured MIC below 40 µg/mL gets Condition met; anything equal to or greater than 40 µg/mL gets Condition not met.

Decide: MIC of CCOC(=O)C1=C(C)NC(=S)NC1c1ccc(NC(=O)Nc2ccc(OC)cc2)cc1 (configuration not stated) strictly below 40 µg/mL?
Condition met

Decide: MIC of CCOC(=O)C1=C(C)NC(=S)NC1c1ccc(NC(=O)Nc2ccc(C(F)(F)F)cc2Cl)cc1 (configuration not stated) strictly below 40 µg/mL?
Condition met

Decide: MIC of CCOC(=O)C1=C(C)NC(=S)NC1c1ccc(NC(=O)Nc2c(F)cccc2C(F)(F)F)cc1 (configuration not stated) strictly below 40 µg/mL?
Condition not met

Decide: MIC of CCOC(=O)C1=C(C)NC(=S)NC1c1ccc(NC(=O)Nc2c(C)cccc2F)cc1 (configuration not stated) strictly below 40 µg/mL?
Condition not met
